METHOD SUMMARY: NCI Yeast Anticancer Drug Screen. Data for the mlh1 strain (AID 171);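 also: 0% = growth of vehicle-treated control cultures of the same strain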
MEASUREMENT CONDITIONS: S. cerevisiae mlh1 strain growth inhibition; at 100.0 µM; hits give high values
This is part of a sample that, as a whole, favours compounds with a hit. Of some 79,000 tested, about 15% had one in any assay.
Use rule met when the recorded growth inhibition is no lower than 30%; use rule not met when it is lower.

{"columns": ["COMPOUND", "LABEL"],
 "data": [
  ["C[C@]12CCC3[C@@H](CC[C@@H]4c5nonc5CC[C@]34C)C1CCC2=O (stereo not given in full)", "rule met"]
]}

Would you kindly look at the next entry?
Q: hey, is growth inhibition for this one >= 30%? C/C(=N\O)c1ccc2ccc3ccccc3c2c1
Ans: rule met

---

This listing pairs compounds with measured growth inhibition.
METHOD SUMMARY: NCI Yeast Anticancer Drug Screen. Data for the rad52 strain (AID 147);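 also: 0% = growth of vehicle-treated control cultures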
MEASUREMENT CONDITIONS: S. cerevisiae rad52 mutant growth inhibition; at 100.0 µM; hits give high values
Compounds without any hit were thinned out: in the full panel of roughly 79,000, 15% have a hit.
Numbers only here, please. The scale is %.

Completed entries (count: 2):
{"columns": ["COMPOUND", "growth inhibition [%]"],
 "data": [
  ["COC(=O)C1=C(C(=O)OC)SC2(S1)C(C(=O)OC)=C(C(=O)OC)Sc1c2ssc1=O", 89],
  ["Nc1nc(N)c2c(Cl)c(CNc3ccc(C(=O)NC(CC(=O)O)C(=O)O)cc3)ccc2n1 (stereo not drawn)", 91]
]}

Now look at this entry.
Q: # lookup: growth inhibition of O=C1c2ccccc2C(=O)C(Cl)C1Cl (stereo not drawn)
Ans: 98

---

This listing pairs compounds with measured growth inhibition.
METHOD SUMMARY: NCI Yeast Anticancer Drug Screen. Data for the bub3 strain (AID 167)
MEASUREMENT CONDITIONS: S. cerevisiae bub3 mutant strain, at 11.0 µM, hits give high values
Compounds without any hit were thinned out: in the full panel of roughly 79,000, 15% have a hit.
Numbers only here, please. The scale is %.

{"columns": ["COMPOUND", "ENDPOINT LABEL", "MEASURED NUMBER"],
 "data": [
  ["O=C1OC2C(O1)C1(Cl)C(Cl)=C(Cl)C2(Cl)C1(Cl)Cl (stereo not drawn)", "growth inhibition", -9],
  ["O=c1oc2ccccc2c(O)c1C(c1ccc2c(c1)Cc1ccccc1-2)c1c(O)c2ccccc2oc1=O", "growth inhibition", 13],
  ["CC(C)CC(NC(=O)C(N)C(C)C)C(=O)NC(CCCCN)C(=O)Nc1ccc(N(CCCl)CCCl)cc1 (stereo not drawn)", "growth inhibition", -16],
  ["O=P(CCCCP(=O)(c1ccccc1)c1ccccc1)(c1ccccc1)c1ccccc1.[Cl][Sn]([Cl])([c]1ccccc1)[c]1ccccc1", "growth inhibition", 50],
  ["COC(=O)c1c(C)ccc2c(O)c3c(cc12)C(=O)c1c2c(cc(O)c1C3=O)C1(C)OC(C)(O2)C(O)C(N(C)C)C1O (stereo not drawn)", "growth inhibition", 64]
]}

Q: # lookup: growth inhibition of O=C(COc1ccc(Cl)cc1Cl)NO
Ans: 2

Q: # lookup: growth inhibition of COC(=O)C(F)C(Br)C(=O)OC (stereo not drawn)
Ans: 98

Q: # lookup: growth inhibition of O=[N+]([O-])c1ccc(C=Cc2ccccc2)cc1.[C-]#[O+].[C-]#[O+].[C-]#[O+].[Cr]
Ans: 2
